Readings of MIC for the listed compounds
# Test system: Pseudomonas aeruginosa
# procedure_summary: Antibacterial activity against Pseudomonas aeruginosa by disc diffusion method
# Type: functional

A selection of reference data follows.
compound: CC1(C)CC(=O)C2=C(C1)N(c1ccccc1F)C(=O)C21C2=C(Nc3ccccc31)C(=O)CC(C)(C)C2 (stereo unspecified)
observed_property: MIC
result: 50 µg/mL
--
compound: CC1(C)CC(=O)C2=C(C1)N(c1c(Br)cc(Br)cc1Br)C(=O)C21C2=C(Nc3ccccc31)C(=O)CC(C)(C)C2 (stereo unspecified)
observed_property: MIC
result: 50 µg/mL
--
compound: COc1ccccc1N1C(=O)C2(C3=C(Nc4ccccc42)C(=O)CC(C)(C)C3)C2=C1CC(C)(C)CC2=O (stereo unspecified)
observed_property: MIC
result: 100 µg/mL
--
compound: CC1(C)S[C@@H]2[C@H](NC(=O)[C@H](N)c3ccccc3)C(=O)N2[C@H]1C(=O)O
observed_property: MIC
result: 100 µg/mL

# evaluate next
Req: Return MIC measured with Pseudomonas aeruginosa given this compound: CC1(C)CC(=O)C2=C(C1)N(c1ccccc1S)C(=O)C21C2=C(Nc3ccccc31)C(=O)CC(C)(C)C2 (stereo unspecified)
Resp: 150 µg/mL

====

# Test system: Bacillus subtilis
# procedure_summary: Antibacterial activity against Bacillus subtilis ATCC 465
# Type: functional
Below, each of the molecules is paired with its reported MIC value.
Numbers only here, please. The scale is mg/L.

Consider the worked cases shown below.
molecule: CN(C)[C@@H]1C(O)=C(C(N)=O)C(=O)[C@@]2(O)C(O)=C3C(=O)c4c(O)cccc4[C@@](C)(O)[C@H]3C[C@@H]12 [TETRACYCLINE]
numeric_value: 4

molecule: O=C1c2c(Cl)cccc2NC2(C(=O)Nc3ccccc32)N1Nc1ccccc1 (stereo not given)
numeric_value: 8

molecule: O=C1c2c(Cl)cccc2NC2(C(=O)Nc3ccc(Br)cc32)N1Nc1ccccc1 (stereo not given)
numeric_value: 4

We next turn to a different molecule, shown below.
Req: Look at this molecule and give its reported MIC. O=C1c2ccccc2NC2(C(=O)Nc3ccc([N+](=O)[O-])cc32)N1Nc1ccccc1 (stereo not given)
Resp: 4

====

Listing of entries alongside the reported MIC90.
# System: Escherichia coli
# procedure_summary: Antibacterial activity against Escherichia coli NCIM 2688 measured after 8 hrs
# Type: functional
Numbers only here, please. The scale is µg/mL.

Worked set:
molecule: Cc1ccc(Cn2cc(CN3C(=O)C4(C(C#N)=C(N)Oc5cc(C)oc(=O)c54)c4ccccc43)nn2)cc1 (configuration not stated)
observed_property: MIC90
numeric_value: 1.97
//
molecule: Cc1ccc(Cn2cc(CN3C(=O)C4(C(C#N)=C(N)Oc5cc(C)oc(=O)c54)c4cc(Cl)ccc43)nn2)cc1 (configuration not stated)
observed_property: MIC90
numeric_value: 2.65
//
molecule: CC1(C)CC(=O)C2=C(C1)OC(N)=C(C#N)C21C(=O)N(Cc2cn(Cc3ccc(Cl)cc3)nn2)c2ccc(Cl)cc21 (configuration not stated)
observed_property: MIC90
numeric_value: 1.78

Req: I have this molecule here, NC[C@H]1O[C@H](O[C@H]2[C@H](O)[C@@H](O[C@H]3O[C@H](CO)[C@@H](O)[C@H](N)[C@H]3O)[C@H](N)C[C@@H]2N)[C@H](O)[C@@H](O)[C@@H]1O [KANAMYCIN] , and I need its recorded MIC90.
Resp: 1.62

Req: Look at this molecule and give its reported MIC90. CC1(C)S[C@@H]2[C@H](NC(=O)[C@H](N)c3ccccc3)C(=O)N2[C@H]1C(=O)O [AMPICILLIN]
Resp: 1.46

Req: Reported MIC90 for Cc1cc2c(c(=O)o1)C1(C(=O)N(Cc3cn(Cc4ccc(Cl)cc4)nn3)c3ccc(Br)cc31)C(C#N)=C(N)O2 (configuration not stated) : what is it?
Resp: 2.75

Req: Item CC1(C)CC(=O)C2=C(C1)OC(N)=C(C#N)C21C(=O)N(Cc2cn(Cc3ccc(Cl)cc3)nn2)c2ccc(Br)cc21 (configuration not stated) has what recorded MIC90?
Resp: 2.86

All values here come from ChEMBL document CHEMBL5226286.
